Where a name gives a salt, the structure may show the parent alone.
Known melting point of a selection of compounds

{"columns": ["compound", "melting point"],
 "data": [
  ["CC(C)Cc1nn(C)c(=O)c2cn(Cc3ccccc3)cc12 [Example 18]", "104 °C"]
]}

Which melting point is listed for CC(C)Cc1nn(C)c(=O)c2c([S+]([O-])CCCO)c(Cc3cccc4ccccc34)sc12 (stereo not shown) [Example 10] ?
60 to 65 °C

# iterate: CC(C)Cc1nn(C)c(=O)c2cc(C(O)c3cccc(C#N)c3)oc12 (stereo not shown) [Example 37]
106 to 108 °C

# iterate: CC(C)Cc1nn(C)c(=O)c2cc(C(O)c3cccc4ccccc34)oc12 (stereo not shown) [Example 35]
110 to 112 °C

# iterate: CC(C)Cc1nn(C)c(=O)c2nn(Cc3cccc4ccccc34)cc12 [Example 33]
163 to 164 °C

# iterate: CC(C)Cc1nn(C)c(=O)c2cc(C(O)c3cccnc3)sc12 (stereo not shown) (as salt: hydrochloride) [Example 40]
154 to 156 °C

# iterate: CC(C)Cc1nn(C)c(=O)c2c(S(=O)(=O)CCCO)c(Cc3ccccc3)sc12 [Example 17]
105 to 107 °C

###

Known melting point of a selection of molecules

Completed entries (count: 4):
{"columns": ["molecule", "melting point"],
 "data": [
  ["CC(C)Cc1nn(C)c(=O)c2cn(Cc3cccc4ccccc34)nc12 [Example 32]", "166 to 167 °C"],
  ["CC(C)Cc1nn(C)c(=O)c2c(SCCCO)n(Cc3ccccc3)cc12 [Example 20]", "91 to 92 °C"],
  ["COCCn1nc(CC(C)C)c2cn(Cc3cccc4ccccc34)cc2c1=O [Example 2]", "96 to 98 °C"],
  ["CC(C)Cc1nn(C)c(=O)c2c(Sc3ccccn3)n(Cc3ccccc3)cc12 [Example 19]", "131 to 132 °C"]
]}

Alright, here's another molecule for you.
Which melting point is listed for CC(C)Cc1nn(C)c(=O)c2c(SCCCO)c(Cc3ccccc3)sc12 [Example 16] ?
60 to 65 °C

###

Known melting point of a selection of compounds
Structures can show the parent of a compound that is named as a salt.

Completed entries (count: 6):
{"columns": ["compound", "melting point"],
 "data": [
  ["CC(C)Cc1nn(C)c(=O)c2cn(Cc3ccncc3)cc12", "91 to 93 °C"],
  ["CC(C)Cc1nn(C)c(=O)c2cc(Cc3cnc4ccccc4c3)sc12 (as salt: hydrochloride)", "> 230 °C (dec.)"],
  ["CC(C)Cc1nn(C)c(=O)c2cc(C(=O)c3cccc4ccccc34)sc12", "121 °C"],
  ["CC(C)Cc1nn(C)c(=O)c2c(SCCCO)n(Cc3cccc4ccccc34)nc12", "141 to 142 °C"],
  ["CC(C)Cc1nn(C)c(=O)c2c(SCCCC(=O)O)c(Cc3cccc4ccccc34)sc12", "154 to 156 °C"],
  ["CC(C)Cc1nn(C)c(=O)c2cc(Cc3cccc4ccccc34)oc12", "73 to 75 °C"]
]}

Which melting point is listed for `CC(C)Cc1nn(C)c(=O)c2c(S(=O)(=O)CCCO)c(Cc3cccc4ccccc34)sc12` ?
160 to 163 °C

# iterate: `CC(C)Nc1nn(C)c(=O)c2cn(Cc3cccc4ccccc34)cc12`
221 to 222 °C

# iterate: CC(C)Cc1nn(C)c(=O)c2cc(C(O)c3cccc4ccccc34)sc12 (stereo not drawn)
165 to 167 °C

# iterate: `CC(C)Cc1nn(C)c(=O)c2cc(Cc3ccccc3)sc12`
97 to 98 °C

# iterate: `CC(C)Cc1nn(C)c(=O)c2cc(Cc3c(F)cccc3Cl)sc12`
85 to 86 °C

# iterate: CC(C)Cc1nn(C)c(=O)c2c([S+]([O-])CCCO)n(Cc3cccc4ccccc34)cc12 (stereo not drawn)
164 to 166 °C

# iterate: `CC(C)Cc1nn(C)c(=O)c2c(SCCCC(=O)O)n(Cc3cccc4ccccc34)cc12`
167 °C

# iterate: `CC(C)Cc1nn(C)c(=O)c2cc(Cc3cccc(C#N)c3)oc12`
76 to 78 °C

# iterate: `CC(C)Cc1nn(C)c(=O)c2cc(Cc3cccnc3)sc12`
118 to 119 °C

# iterate: `CC(C)Cc1nn(C)c(=O)c2cc(Cc3ccccc3C(F)(F)F)sc12`
112 to 114 °C

# iterate: `COc1cc(Cn2cc3c(CC(C)C)nn(C)c(=O)c3c2)cc(OC)c1OC`
154.5 to 155 °C

# iterate: `CC(C)Cc1nn(C)c(=O)c2cn(Cc3cccc4ccccc34)cc12`
110 to 112 °C
